Origin of the recorded values: ChEMBL document CHEMBL3244014

- Target or system: UniProt:P05186
- Protocol description: Inhibition of human serum containing 14% bone alkaline phosphatase using p-nitrophenyl phosphate as substrate at 8.7 x 10^-5 M up to 35 mins by spectrophotometry
Active and inactive are the calls of the source. No cut-off for these calls is given here.
Measured metric: inhibition

• c1ccc([C@H]2CN3CC[Se]C3=N2)cc1 = 63%
• c1ccc([C@@H]2CN3CCSC3=N2)cc1 (stereo in doubt; (-)) = 56%
• c1ccc([C@@H]2CN3CC[Se]C3=N2)cc1 = inactive
• c1ccc([C@@H]2CN3CCSC3=N2)cc1 (stereo in doubt; (+)) = inactive

----------
- Target or system: Intestinal-type alkaline phosphatase (Homo sapiens) (UniProt P09923)
- Sequence (P09923 20-503 limits assumed): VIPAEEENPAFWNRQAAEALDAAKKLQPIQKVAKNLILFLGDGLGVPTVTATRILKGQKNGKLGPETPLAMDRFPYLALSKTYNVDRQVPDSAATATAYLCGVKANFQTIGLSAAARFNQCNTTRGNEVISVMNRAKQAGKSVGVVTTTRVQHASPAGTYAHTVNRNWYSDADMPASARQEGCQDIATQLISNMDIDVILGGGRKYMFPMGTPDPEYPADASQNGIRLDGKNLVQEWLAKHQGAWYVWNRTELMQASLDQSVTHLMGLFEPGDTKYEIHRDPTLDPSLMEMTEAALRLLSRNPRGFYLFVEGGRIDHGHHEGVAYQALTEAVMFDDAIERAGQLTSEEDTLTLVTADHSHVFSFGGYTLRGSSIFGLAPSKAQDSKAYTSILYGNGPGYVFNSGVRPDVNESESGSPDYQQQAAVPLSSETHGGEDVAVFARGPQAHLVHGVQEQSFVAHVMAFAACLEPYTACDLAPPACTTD
- Protocol description: Inhibition of human serum containing 26% intestine alkaline phosphatase using p-nitrophenyl phosphate as substrate at 8.7 x 10^-5 M up to 35 mins by spectrophotometry
Activity calls are given as the source filed them. The calls are words filed in the database; no cut-off is given here.
Measured metric: inhibition

• c1ccc([C@@H]2CN3CCSC3=N2)cc1 (stereo in doubt; (-)) = 65%
• c1ccc([C@H]2CN3CC[Se]C3=N2)cc1 = 70%
• c1ccc([C@@H]2CN3CC[Se]C3=N2)cc1 = inactive
• c1ccc([C@@H]2CN3CCSC3=N2)cc1 (stereo in doubt; (+)) = inactive

----------
- Target or system: Alkaline phosphatase, tissue-nonspecific isozyme (Homo sapiens)
- Sequence (whole entry): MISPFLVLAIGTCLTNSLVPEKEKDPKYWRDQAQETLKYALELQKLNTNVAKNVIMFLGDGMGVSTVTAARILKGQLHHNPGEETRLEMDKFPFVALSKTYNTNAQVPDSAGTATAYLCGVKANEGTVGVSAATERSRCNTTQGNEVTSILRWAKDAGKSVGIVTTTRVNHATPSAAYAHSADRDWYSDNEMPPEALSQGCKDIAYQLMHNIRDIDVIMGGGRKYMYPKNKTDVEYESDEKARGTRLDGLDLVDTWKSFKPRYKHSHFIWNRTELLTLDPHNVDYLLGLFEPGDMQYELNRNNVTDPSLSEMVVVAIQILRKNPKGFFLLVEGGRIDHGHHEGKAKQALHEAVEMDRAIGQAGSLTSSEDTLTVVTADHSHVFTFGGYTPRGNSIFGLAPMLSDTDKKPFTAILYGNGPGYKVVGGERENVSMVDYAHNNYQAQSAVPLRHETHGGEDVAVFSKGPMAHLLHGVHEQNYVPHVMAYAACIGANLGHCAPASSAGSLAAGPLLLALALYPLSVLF
- Protocol description: Inhibition of human serum containing 10% bone alkaline phosphatase using p-nitrophenyl phosphate as substrate at 8.7 x 10^-5 M up to 35 mins by spectrophotometry
The source made the active and inactive calls. The rule behind the calls is not given here.
Measured metric: inhibition

- c1ccc([C@@H]2CN3CCSC3=N2)cc1 (stereo in doubt; (+)): inactive
- c1ccc([C@H]2CN3CC[Se]C3=N2)cc1: 70%
- c1ccc([C@@H]2CN3CCSC3=N2)cc1 (stereo in doubt; (-)): 65%
- c1ccc([C@@H]2CN3CC[Se]C3=N2)cc1: inactive

----------
- Target or system: Alkaline phosphatase, tissue-nonspecific isozyme (Homo sapiens)
- Sequence (whole entry): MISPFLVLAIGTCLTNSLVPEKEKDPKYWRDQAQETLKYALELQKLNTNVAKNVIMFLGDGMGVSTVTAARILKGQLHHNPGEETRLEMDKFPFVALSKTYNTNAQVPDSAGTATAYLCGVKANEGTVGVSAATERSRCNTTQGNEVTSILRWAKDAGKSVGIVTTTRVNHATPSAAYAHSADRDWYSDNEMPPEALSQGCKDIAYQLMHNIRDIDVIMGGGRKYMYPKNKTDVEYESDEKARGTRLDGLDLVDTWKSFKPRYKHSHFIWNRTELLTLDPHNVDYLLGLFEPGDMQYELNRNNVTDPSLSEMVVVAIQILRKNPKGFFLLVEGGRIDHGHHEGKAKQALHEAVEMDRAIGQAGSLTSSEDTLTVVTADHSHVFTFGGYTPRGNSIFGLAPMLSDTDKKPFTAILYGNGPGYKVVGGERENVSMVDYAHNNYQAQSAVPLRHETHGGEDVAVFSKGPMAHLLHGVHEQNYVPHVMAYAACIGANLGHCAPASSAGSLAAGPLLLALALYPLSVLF
- Protocol description: Inhibition of human serum containing 40% bone alkaline phosphatase using p-nitrophenyl phosphate as substrate at 8.7 x 10^-5 M up to 35 mins by spectrophotometry
The source made the active and inactive calls. No cut-off for these calls is given here.
Measured metric: inhibition

• c1ccc([C@H]2CN3CC[Se]C3=N2)cc1 = 78%
• c1ccc([C@@H]2CN3CCSC3=N2)cc1 (stereo in doubt; (-)) = 71%
• c1ccc([C@@H]2CN3CCSC3=N2)cc1 (stereo in doubt; (+)) = inactive
• c1ccc([C@@H]2CN3CC[Se]C3=N2)cc1 = inactive
